Kindly supply the reported PROTEASE % INHIB. values for the records listed here.
subject_of_test: HIV-1 protease (Human immunodeficiency virus type 1 group M subtype B, UniProt P04585)
assay_details: biochemical
measurement_setup: Table II; enzyme HIV-1; DOSE 0.123 (unit not given)
Dear colleague, please return just the value in %, with no unit written.

Which PROTEASE % INHIB. value belongs to CCC[C@@]1(CCc2ccccc2)CC(O)=C([C@@H](c2cccc(NS(=O)(=O)c3cn(C)cn3)c2)C(C)(C)C)C(=O)O1 (single isomer, unassigned) [Example 310] ?
16.81

Same question for CCCC1(CCc2ccccc2)CC(O)=C(C(c2cccc(NS(=O)(=O)c3cn(C)cn3)c2)C(C)(C)C)C(=O)O1 (single isomer, unassigned) [Example 307] please.
77.39

Same question for CCCC1(CCC)CC(O)=C(C(CC)c2cccc(NS(=O)(=O)c3ccc(C(F)(F)F)cn3)c2)C(=O)O1 (stereo not drawn) [Example 280] please.
95.28

From: patent US6169181A
